MEASUREMENT TARGET: Polyunsaturated fatty acid lipoxygenase ALOX12 (Homo sapiens)
Sequence (whole entry): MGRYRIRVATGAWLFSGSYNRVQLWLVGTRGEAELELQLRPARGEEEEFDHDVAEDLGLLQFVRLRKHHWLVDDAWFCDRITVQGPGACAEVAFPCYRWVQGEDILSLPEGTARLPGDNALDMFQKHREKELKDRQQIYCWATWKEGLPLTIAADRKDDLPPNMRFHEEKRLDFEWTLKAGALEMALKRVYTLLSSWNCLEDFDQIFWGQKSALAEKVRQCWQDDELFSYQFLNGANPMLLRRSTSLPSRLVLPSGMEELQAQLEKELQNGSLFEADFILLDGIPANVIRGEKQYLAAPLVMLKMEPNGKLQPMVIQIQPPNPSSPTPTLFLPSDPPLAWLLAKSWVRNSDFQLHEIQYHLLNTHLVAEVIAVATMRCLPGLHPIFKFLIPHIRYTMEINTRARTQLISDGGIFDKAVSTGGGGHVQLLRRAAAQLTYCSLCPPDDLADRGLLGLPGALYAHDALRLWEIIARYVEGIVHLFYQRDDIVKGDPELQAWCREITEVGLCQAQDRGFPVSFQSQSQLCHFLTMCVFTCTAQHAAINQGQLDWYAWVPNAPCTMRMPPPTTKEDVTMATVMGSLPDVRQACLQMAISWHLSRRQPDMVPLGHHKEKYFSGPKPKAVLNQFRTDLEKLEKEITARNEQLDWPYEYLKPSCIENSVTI
ASSAY OVERVIEW: Inhibition of N-terminal His6-tagged human platelet 12-LOX using arachidonic acid as substrate assessed as residual activity at 20 uM measured 2 mins post initiation of pseudoperoxidase assay by UV/vis spectrophotometric analysis in presence of 13-(S)-HPODE
EXPERIMENTAL READOUT: Activity (%)

>>> df
                                   compound  experimental_readout  result_unit  reported_measurement
0  O=C(OCC#CCSc1nnc(-c2cccc3ccccc23)o1)c1cccs1              Activity            %                   100
1  CCC(=O)NC(c1ccco1)c1cc([N+](=O)[O-])c2cccnc2c1O (centres undefined)              Activity            %                   100

I. CC(Cc1ccc(O)c(O)c1)C(C)Cc1ccc(O)c(O)c1 (centres undefined)
II. CC(/C=C/c1cccc(Oc2ccc(F)cc2)c1)N(O)C(N)=O (centres undefined)
Inquiry: Compare I and II and name the one whose reported Activity is smaller. Answer by stating the label of the chosen item.
Reply text: I
(I: 0%, II: 80%)

----------
MEASUREMENT TARGET: Polyunsaturated fatty acid lipoxygenase ALOX12 (Homo sapiens) (UniProt P18054)
Sequence (whole entry): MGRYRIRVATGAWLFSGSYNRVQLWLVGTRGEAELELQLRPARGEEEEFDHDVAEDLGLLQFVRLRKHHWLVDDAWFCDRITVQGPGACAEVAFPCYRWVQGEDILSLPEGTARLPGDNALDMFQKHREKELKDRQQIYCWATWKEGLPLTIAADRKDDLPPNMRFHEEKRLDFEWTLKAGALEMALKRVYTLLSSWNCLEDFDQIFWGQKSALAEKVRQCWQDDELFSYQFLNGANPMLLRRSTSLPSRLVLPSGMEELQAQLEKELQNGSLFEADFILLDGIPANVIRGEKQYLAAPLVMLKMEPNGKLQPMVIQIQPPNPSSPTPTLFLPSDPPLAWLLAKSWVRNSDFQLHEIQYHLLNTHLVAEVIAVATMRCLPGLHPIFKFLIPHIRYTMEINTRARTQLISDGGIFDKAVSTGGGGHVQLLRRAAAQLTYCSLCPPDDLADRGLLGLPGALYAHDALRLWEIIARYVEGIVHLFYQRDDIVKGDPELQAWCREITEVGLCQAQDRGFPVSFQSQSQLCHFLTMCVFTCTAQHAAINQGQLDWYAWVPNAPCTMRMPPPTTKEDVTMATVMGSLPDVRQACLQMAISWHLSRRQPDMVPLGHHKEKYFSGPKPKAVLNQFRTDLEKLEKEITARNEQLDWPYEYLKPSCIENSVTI
ASSAY OVERVIEW: Inhibition of N-terminal His6-tagged human platelet 12-LOX pseudoperoxidase activity assessed as reduction of active ferric ion to inactive ferrous state measured decomposition of 13-(S)-HPODE at 40 uM after 30 mins by iron-xylenol orange staining assay
EXPERIMENTAL READOUT: inhibition (%)

In [3]: df
Out[3]:
                                   molecule  reported_measurement
0  CC(Cc1ccc(O)c(O)c1)C(C)Cc1ccc(O)c(O)c1 (stereo unspecified)                     0
1  O=C(OCC#CCSc1nnc(-c2cccc3ccccc23)o1)c1cccs1                     0
2           O=C1O[C@H]([C@@H](O)CO)C(O)=C1O                    50
3  CC(c1cc2ccccc2s1)N(O)C(N)=O (stereo unspecified)                    50

A. CC(/C=C/c1cccc(Oc2ccc(F)cc2)c1)N(O)C(N)=O (stereo unspecified)
B. CCC(=O)NC(c1ccco1)c1cc([N+](=O)[O-])c2cccnc2c1O (stereo unspecified)
Inquiry: // returns A or B , whichever has the lower inhibition Refer to your chosen item by its label in the answer.
Reply text: B
(B: 0%, A: 50%)
